Target Desc: PhoP (Mycobacterium tuberculosis, UniProt P71814 1-247)
Assay Remarks: ITC
Quantity Kind: pKd
Scale explanation: pKd corresponds to minus log10 of a concentration expressed in moles per litre.

// known answers, use as guide
PPE50 (dsDNA) DNA 1: CTTTTCACAGCAAAGTCCCAGAAATGGC DNA 2: GCCATTTCTGGGACTTTGCTGTGAAAAG    7.34
fadD21 (dsDNA) DNA 1: CCTGTTTCAGCACATGCACAGCATTGCA DNA 2: TGCAATGCTGTGCATGTGCTGAAACAGG    7.30
Rv0964c (dsDNA) DNA 1: GCGCGCACGGCACACGCACCGCATCGGC DNA 2: GCCGATGCGGTGCGTGTGCCGTGCGCGC    5.36
umaA (dsDNA) DNA 1: TGACGCAAGGCGAGATCACAGACCGAGA DNA 2: TCTCGGTCTGTGATCTCGCCTTGCGTCA    5.92
lipF -572 (dsDNA) DNA 1: AGACGTACAGCAAACTCCCAGTCATACA DNA 2: TGTATGACTGGGAGTTTGCTGTACGTCT    6.94

Briefly, pKd measured for ptrBa -162 (dsDNA) DNA 1: TTGTCCGCAGCTGGCTCACCGGCTCCGA DNA 2: TCGGAGCCGGTGAGCCAGCTGCGGACAA : 6.01

Briefly, pKd measured for hsp (dsDNA) DNA 1: CCGGACACAGCTAACTCACAACGAAGCA DNA 2: TGCTTCGTTGTGAGTTAGCTGTGTCCGG : 7.29
